All values here come from ChEMBL document CHEMBL3421565.

# System: Hepatitis C virus
# protocol.description: Antiviral activity against HCV genotype 1b infected in human HuH7 cells assessed as reduction in replicon RNA levels incubated for 5 days by RT-PCR assay
# Assay type: functional, cell-based, Hepacivirus hominis
# test.conditions: Huh-7, 120 h
pEC50: −log10 of the molar value.
assay.endpoint: pEC50

>>> measured("CCOC(=O)CCc1ccccc1O[P@@](=O)(N[C@@H](C)C(=O)OCC)OC[C@H]1O[C@@H](n2cnc3c(N)nc(N)nc32)[C@](C)(O)[C@H]1O")
6.59

====

# protocol.description: Cytotoxicity against African green monkey Vero cells assessed as reduction in cell viability incubated for 5 days by Cell-titer 96 aqueous one solution cell proliferation assay
# Assay type: cell-based
# test.conditions: chlorocebus sabaeus, Vero cells
assay.endpoint: CC50 at 120 h (µM)

>>> measured("CCOC(=O)CCc1ccccc1OP(=O)(OC[C@H]1O[C@@H](n2cnc3c(N)nc(N)nc32)[C@](C)(O)[C@@H]1O)Oc1ccccc1CCC(=O)OCC")
90
